MEASURE NAME: melting point

# QUERY SMILES, MEASURE NAME, ASSAY VALUE
data = [
    ("CN1C(=O)N(c2c(Cl)cccc2Cl)Cc2cnc(NCc3ccc(CN)cc3)nc21", "melting point", "151 to 152 °C"),
    ("O=c1[nH]c(N2CCN(CCCCN3CCCCC3)CC2)cc2ccc(Br)cc12", "melting point", "211 to 212 °C"),
    ("COC(=O)c1sc2ccccc2c1S(N)(=O)=O", "melting point", "150 to 154 °C"),
]

====

Below, each entry is listed alongside its reported melting point.
MEASURE NAME: melting point

# QUERY SMILES, ASSAY VALUE
measured = [
    ("O=C(C=C(C(=O)O)c1csc(NC(=O)OCc2ccccc2)n1)OCc1ccccc1", "144 to 146 °C"),
    ("CNC(=O)ON=C1N=C(C)C(C)(C)S1", "123 to 125 °C"),
    ("C=CCc1ccc(C(=O)CCC(=O)OC)cc1O", "90 to 92.5 °C"),
]

====

Measured melting point, listed per entry for reference.

# COMPOUND, melting point
data = [
    ("O=[N+]([O-])c1cc(C2=NOC(c3cc(C(F)(F)F)cc(C(F)(F)F)c3)(C(F)(F)F)C2)ccc1N1C=NNN1 (centres undefined)", "147 to 149 °C"),
    ("O=C(O)C1CCCc2c(-c3ccc(C(F)(F)F)cc3)noc2C1 (centres undefined)", "222 to 225 °C"),
    ("CC(C)OC(=O)c1cc(-n2c(=O)c3c(n(C)c2=O)CCS3)c(F)cc1Cl", "156 to 158 °C"),
    ("CC(c1ccc(NC=O)cc1)n1ccnc1 (centres undefined)", "129 °C"),
    ("O=C(O)c1ccc(CO/N=C/c2cn(Cc3ccccc3)c3ccccc23)cc1Br", "107 to 109 °C"),
    ("COc1cc(Cl)c(N)c(C(=O)O)c1OC", "140 to 142 °C"),
    ("O=C(O)CCC(Cc1ccccc1Cl)(C(=O)C=Cc1ccc(Cl)cc1)c1ccccc1 (centres undefined)", "184 to 187 °C"),
    ("CN(C)C=Nc1c(I)c(=O)n(Cc2ccccc2)c(=O)n1C", "186 °C"),
    ("O=C(O)c1ccc(CO)c2ccccc12", "183 to 184 °C"),
]

====

MEASURE NAME: melting point

# MOLECULE, ASSAY VALUE
measured = [
    ("CC(Cc1cc(-c2ccccc2)nc2ccccc12)C(=O)O (stereo not given)", "185 °C"),
    ("O=C(NO)c1ccc(CNC(=O)c2[nH]c(-c3ccccc3)cc2-c2ccc(Br)cc2)cc1", "174 to 176 °C"),
    ("COc1ccc2c(c1)CC1=C2NN(C(=O)OC(C)(C)C)C1c1cccs1 (stereo not given)", "163 to 165 °C"),
    ("CN1C2CCC1CC(c1n[nH]c3cc(F)ccc13)C2 (stereo not given)", "235 to 236 °C"),
    ("COC(=O)C(C)Oc1ccc(COc2ccc(Cl)cc2Cl)cc1 (stereo not given)", "64 °C"),
]

====

Each entry below lists one item and its recorded melting point value.
MEASURE NAME: melting point

# MOLECULE, ASSAY VALUE
rows = [
    ("CCOC(=O)N1CCN(C(=O)Cn2sc3ccccc3c2=O)CC1", "158 to 160 °C"),
    ("COc1cc(N)c(Cl)cc1C(=O)NC1CCN2CCCC2C1 (stereo not drawn)", "193 to 194 °C"),
    ("N#CC1(c2cccs2)CCC(=O)CC1", "118 to 119 °C"),
]
